B1: scFv; the commonest letter at each place (parent)
chain 1: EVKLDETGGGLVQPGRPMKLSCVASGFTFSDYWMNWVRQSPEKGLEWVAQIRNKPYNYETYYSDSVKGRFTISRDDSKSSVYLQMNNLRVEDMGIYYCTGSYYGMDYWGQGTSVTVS
chain 2: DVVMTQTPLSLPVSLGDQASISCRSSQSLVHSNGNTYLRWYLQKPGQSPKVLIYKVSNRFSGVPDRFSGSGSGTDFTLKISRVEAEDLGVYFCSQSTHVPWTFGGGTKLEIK

- Variants of: B1
- procedure summary: yeast surface expression (ratio to wild type); higher = more expressed
- settings: format: scFv 4-4-20, heavy + light
Reported yeast surface expression values for a set of variants
# respond with the number and nothing more

[
  {
    "variant descriptor": "chain 1 F29Q S30G",
    "parameter measured": "yeast surface expression",
    "experimental value": 0.863
  },
  {
    "variant descriptor": "chain 1 W36M V37P",
    "parameter measured": "yeast surface expression",
    "experimental value": 0.36
  },
  {
    "variant descriptor": "chain 1 S101G M105A",
    "parameter measured": "yeast surface expression",
    "experimental value": 0.988
  },
  {
    "variant descriptor": "chain 1 Y103S G109T",
    "parameter measured": "yeast surface expression",
    "experimental value": 0.469
  },
  {
    "variant descriptor": "chain 1 S101R D106L",
    "parameter measured": "yeast surface expression",
    "experimental value": 0.0991
  }
]

Given the variant chain 1 W108G , what is its reported yeast surface expression?
0.48

Further, for chain 1 G100C G104I ?
0.267

Record: chain 1 M105D D106T
0.588

Same read-out for chain 1 G104M Y107H ?
0.555

Same read-out for chain 1 Y102D W108M ?
0.926

Could you do the same for chain 1 D31R W36M V37G , please?
3.04

Subsequent entry: chain 1 Y32R W33H W36S
0.723

Likewise for chain 1 G109T ?
0.551

Next variant up: chain 1 Y103N
1.17

And the next one, chain 1 W33P ?
0.803

// query: chain 1 M105D W108S
0.458

// query: chain 1 D31M
0.58

Input chain 1 S30L Y32H
0.8

Let us now turn to chain 1 S101H Y102R
0.96

Similarly, chain 1 S101T G104F ?
0.437

chain 1 G100D Y102S ?
0.289

chain 1 S30I W33Y V37P , same question.
0.0571
